Numbers sourced from paper PMC6222820.

Measured melting point accompanies every entry in the list below.

Worked examples follow.
1. O=S(=O)(NCCNc1cc(-c2cn(-c3ccccc3)nc2-c2cccc(O)c2)ccn1)c1cccc(F)c1 [Compound 3g]	146 to 148 °C
2. COc1cccc(-c2nn(-c3ccccc3)cc2-c2ccnc(NCCNS(=O)(=O)c3ccc(F)cc3)c2)c1 [Compound 1d]	155 to 156 °C
3. COc1ccc(S(=O)(=O)NCCNc2cc(-c3cn(-c4ccccc4)nc3-c3cccc(OC)c3)ccn2)cc1 [Compound 1e]	144 to 146 °C
4. O=S(=O)(NCCNc1cc(-c2cn(-c3ccccc3)nc2-c2cccc(O)c2)ccn1)c1ccccc1 [Compound 3a]	100 to 102 °C

Request: If you can, please state the reported melting point value of COc1cccc(-c2nn(-c3ccccc3)cc2-c2ccnc(NCCCNS(=O)(=O)c3ccc(Cl)cc3)c2)c1 [Compound 2c] .
Response: 98 to 100 °C

Request: Thanks! And Cc1ccc(S(=O)(=O)NCCNc2cc(-c3cn(-c4ccccc4)nc3-c3cccc(O)c3)ccn2)cc1 [Compound 3e] ?
Response: 114 to 116 °C

Request: Try COc1cccc(-c2nn(-c3ccccc3)cc2-c2ccnc(NCCNS(=O)(=O)c3cccc4ccccc34)c2)c1 [Compound 1i] next.
Response: 178 to 180 °C

---

attribute measured: melting point

Some solved entries appear below for comparison.
1. O=S(=O)(NCCCNc1cc(-c2cn(-c3ccccc3)nc2-c2cccc(O)c2)ccn1)c1ccc(Cl)cc1 [Compound 4c]	166 to 168 °C
2. O=S(=O)(NCCNc1cc(-c2cn(-c3ccccc3)nc2-c2cccc(O)c2)ccn1)c1ccc(Cl)cc1 [Compound 3c]	100 to 102 °C
3. COc1cccc(-c2nn(-c3ccccc3)cc2-c2ccnc(NCCCNS(=O)(=O)c3ccc(Br)cc3)c2)c1 [Compound 2b]	117 to 119 °C
4. COc1ccc(S(=O)(=O)NCCCNc2cc(-c3cn(-c4ccccc4)nc3-c3cccc(OC)c3)ccn2)cc1 [Compound 2e]	124 to 126 °C
5. COc1cccc(-c2nn(-c3ccccc3)cc2-c2ccnc(NCCCNS(=O)(=O)c3ccccc3)c2)c1 [Compound 2a]	119 to 120 °C
6. COc1cccc(-c2nn(-c3ccccc3)cc2-c2ccnc(NCCCNS(=O)(=O)c3ccc(C)cc3)c2)c1 [Compound 2f]	94 to 96 °C

Shift focus to the following entry.
Request: // returns reported melting point for input O=S(=O)(NCCCNc1cc(-c2cn(-c3ccccc3)nc2-c2cccc(O)c2)ccn1)c1ccccc1 [Compound 4a]
Response: 154 to 156 °C

---

Listed here are compounds together with their documented pIC50.
- protocol notes: MTT assay for cell viability / cytotoxicity
- Type: cell-based
- measurement parameters: mouse, RAW 264.7 macrophages, means ± SD of three independent experiments
Just the number, please; pIC50 means minus log10 of the concentration in mol/L.

Answered examples (5):
1) O=S(=O)(NCCNc1cc(-c2cn(-c3ccccc3)nc2-c2cccc(O)c2)ccn1)c1ccc(F)cc1	4.58
2) COc1cccc(-c2nn(-c3ccccc3)cc2-c2ccnc(NCCCNS(=O)(=O)c3ccc(Br)cc3)c2)c1	3.41
3) COc1cccc(-c2nn(-c3ccccc3)cc2-c2ccnc(NCCCNS(=O)(=O)c3ccc(C)cc3)c2)c1	3.49
4) O=S(=O)(NCCCNc1cc(-c2cn(-c3ccccc3)nc2-c2cccc(O)c2)ccn1)c1ccc(C(F)(F)F)cc1	4.75
5) COc1cccc(-c2nn(-c3ccccc3)cc2-c2ccnc(NCCNS(=O)(=O)c3ccc(F)cc3)c2)c1	3.77

Request: I'd like to know its pIC50. The compound in question is COc1cccc(-c2nn(-c3ccccc3)cc2-c2ccnc(NCCNS(=O)(=O)c3cccc(F)c3)c2)c1
Response: 3.61

Request: Item: O=S(=O)(NCCNc1cc(-c2cn(-c3ccccc3)nc2-c2cccc(O)c2)ccn1)c1ccc(Br)cc1
Response: 4.61

---

- protocol notes: MTT assay for cell viability / cytotoxicity
- Format: cell-based
- measurement parameters: mouse, RAW 264.7 macrophages, means ± SD of three independent experiments
attribute measured: IC50 (µM)
The response must be a number in µM with no trailing unit.

1) COc1cccc(-c2nn(-c3ccccc3)cc2-c2ccnc(NCCNS(=O)(=O)c3ccc(Br)cc3)c2)c1	254
2) COc1cccc(-c2nn(-c3ccccc3)cc2-c2ccnc(NCCCNS(=O)(=O)c3cccc(F)c3)c2)c1	246
3) O=S(=O)(NCCNc1cc(-c2cn(-c3ccccc3)nc2-c2cccc(O)c2)ccn1)c1ccc(Cl)cc1	22.7
4) O=S(=O)(NCCCNc1cc(-c2cn(-c3ccccc3)nc2-c2cccc(O)c2)ccn1)c1ccc(Br)cc1	19.5
5) Cc1ccc(S(=O)(=O)NCCNc2cc(-c3cn(-c4ccccc4)nc3-c3cccc(O)c3)ccn2)cc1	32.5

Lab note: next molecule to report on.
Request: // query IC50 value for entry O=S(=O)(NCCNc1cc(-c2cn(-c3ccccc3)nc2-c2cccc(O)c2)ccn1)c1cccc(F)c1
Response: 28.7

---

Some compounds, each annotated with its measured IC50.
- protocol notes: MTT assay for cell viability / cytotoxicity
- Type: cell-based
- measurement parameters: mouse, RAW 264.7 macrophages, means ± SD of three independent experiments
Provide the reading as a plain figure in µM.

1. O=S(=O)(NCCCNc1cc(-c2cn(-c3ccccc3)nc2-c2cccc(O)c2)ccn1)c1ccccc1	16.6
2. O=S(=O)(NCCCNc1cc(-c2cn(-c3ccccc3)nc2-c2cccc(O)c2)ccn1)c1cccc(F)c1	9.35
3. COc1cccc(-c2nn(-c3ccccc3)cc2-c2ccnc(NCCCNS(=O)(=O)c3ccccc3)c2)c1	346
4. COc1cccc(-c2nn(-c3ccccc3)cc2-c2ccnc(NCCCNS(=O)(=O)c3ccc(C(F)(F)F)cc3)c2)c1	253
5. COc1cccc(-c2nn(-c3ccccc3)cc2-c2ccnc(NCCCNS(=O)(=O)c3ccc(F)cc3)c2)c1	260

Request: Given Cc1ccc(S(=O)(=O)NCCCNc2cc(-c3cn(-c4ccccc4)nc3-c3cccc(O)c3)ccn2)cc1 , state its recorded IC50.
Response: 23

---

attribute measured: melting point

Illustrative cases are given below, each with its answer.
1) O=S(=O)(NCCNc1cc(-c2cn(-c3ccccc3)nc2-c2cccc(O)c2)ccn1)c1cccc2ccccc12	146 to 148 °C
2) COc1cccc(-c2nn(-c3ccccc3)cc2-c2ccnc(NCCCNS(=O)(=O)c3ccc(F)cc3)c2)c1	92 to 94 °C

Request: I would be grateful if you could share the reported melting point for Cc1ccc(S(=O)(=O)NCCCNc2cc(-c3cn(-c4ccccc4)nc3-c3cccc(O)c3)ccn2)cc1 .
Response: 158 to 160 °C

Request: Now consider COc1cccc(-c2nn(-c3ccccc3)cc2-c2ccnc(NCCNS(=O)(=O)c3ccccc3)c2)c1 and answer again.
Response: 104 to 106 °C

---

attribute measured: melting point

Request: Which melting point value belongs to COc1cccc(-c2nn(-c3ccccc3)cc2-c2ccnc(NCCNS(=O)(=O)c3ccc(Cl)cc3)c2)c1 [Compound 1c] ?
Response: 132 to 134 °C

Request: Consider next the compound COc1cccc(-c2nn(-c3ccccc3)cc2-c2ccnc(NCCNS(=O)(=O)c3ccc(Br)cc3)c2)c1 [Compound 1b] in the same way.
Response: 136 to 138 °C

Request: Moving on to the next compound: COc1cccc(-c2nn(-c3ccccc3)cc2-c2ccnc(NCCNS(=O)(=O)c3cccc(F)c3)c2)c1 [Compound 1h]
Response: 118 to 120 °C

Request: And O=S(=O)(NCCNc1cc(-c2cn(-c3ccccc3)nc2-c2cccc(O)c2)ccn1)c1ccc(Br)cc1 [Compound 3b] ?
Response: 178 to 180 °C

---

- protocol notes: MTT assay for cell viability / cytotoxicity
- Type: cell-based
- measurement parameters: mouse, RAW 264.7 macrophages, means ± SD of three independent experiments
attribute measured: pIC50
Just the number, please; pIC50 means minus log10 of the concentration in mol/L.

Here is how some compounds turned out for pIC50.
1. COc1cccc(-c2nn(-c3ccccc3)cc2-c2ccnc(NCCNS(=O)(=O)c3ccc(C(F)(F)F)cc3)c2)c1	3.58
2. O=S(=O)(NCCNc1cc(-c2cn(-c3ccccc3)nc2-c2cccc(O)c2)ccn1)c1ccccc1	4.53
3. COc1cccc(-c2nn(-c3ccccc3)cc2-c2ccnc(NCCNS(=O)(=O)c3ccccc3)c2)c1	3.61
4. COc1cccc(-c2nn(-c3ccccc3)cc2-c2ccnc(NCCNS(=O)(=O)c3ccc(Cl)cc3)c2)c1	3.66
5. COc1ccc(S(=O)(=O)NCCNc2cc(-c3cn(-c4ccccc4)nc3-c3cccc(OC)c3)ccn2)cc1	3.54
6. COc1cccc(-c2nn(-c3ccccc3)cc2-c2ccnc(NCCCNS(=O)(=O)c3ccc(Cl)cc3)c2)c1	3.54

Request: Quick check: pIC50 of O=S(=O)(NCCCNc1cc(-c2cn(-c3ccccc3)nc2-c2cccc(O)c2)ccn1)c1ccc(F)cc1 ?
Response: 4.90

Request: Same read-out for O=S(=O)(NCCCNc1cc(-c2cn(-c3ccccc3)nc2-c2cccc(O)c2)ccn1)c1ccc(Cl)cc1 ?
Response: 4.73
